# system-tested: UniProt Q8TDS7
# Sequence (Q8TDS7 whole entry): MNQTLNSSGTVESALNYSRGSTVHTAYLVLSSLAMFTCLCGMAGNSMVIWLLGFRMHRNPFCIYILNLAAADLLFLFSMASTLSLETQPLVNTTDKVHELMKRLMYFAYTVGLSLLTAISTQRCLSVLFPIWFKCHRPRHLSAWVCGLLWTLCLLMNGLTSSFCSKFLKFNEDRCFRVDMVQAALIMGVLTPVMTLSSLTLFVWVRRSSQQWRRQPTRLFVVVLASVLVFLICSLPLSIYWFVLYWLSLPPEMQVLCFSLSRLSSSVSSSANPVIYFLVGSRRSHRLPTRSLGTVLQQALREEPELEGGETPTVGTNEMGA
# measurement-notes: MRGPRD antagonist activity, IP-One HTRF assay in CHO cells stably expressing human MRGPRD (versus 100 μM β-Alanine agonist)
measured-parameter: IC50

Sample records with IC50:
> print(dat)
                                   molecule  measured.parameter           result
1  O=C(Nc1ccncc1)c1nnn(-c2ccc(-c3cccc(CO)c3)cc2)c1C1CC1 [Compound 7-171]                IC50  1000 to 3000 nM
2  Cc1nc(C(C)NC(=O)c2nnn(-c3ccc(-c4ccccc4)cc3)c2C2CC2)cs1 (stereo not shown) [Compound 14-13]                IC50        > 3000 nM
3  CCn1nc(C)c(-c2ccc(-n3nnc(C(=O)Nc4ccc(NS(C)(=O)=O)cc4)c3C3CC3)cc2)c1C [Compound 9-28]                IC50   500 to 1000 nM

Next molecule, IC50 to be filled in.
Exercise: Endpoint output: IC50 of CC(NC(=O)c1nnn(-c2ccc(-c3ccccc3)cc2)c1C1CC1)c1cccnc1 (stereo not shown) [Compound 14-49] . Value?
Key: 1000 to 3000 nM

Values were extracted from patent US20260001871A1.
